These entries and their values trace back to the Human Domainome abundance scans (Beltran et al. 2025).

B1: CD2-associated protein, residues 109 to 169; numbered along this chain, Q9Y5K6 (parent)
chain: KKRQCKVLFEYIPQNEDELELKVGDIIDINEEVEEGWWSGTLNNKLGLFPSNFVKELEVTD

- Variants of: B1
- TEST_DETAILS: abundance fitness (aPCA) (normalised: wild type 0, dead -1); higher = more abundant; growth selection in yeast, the domain comes from the species named
- CONDITION_PARAMETERS: Homo sapiens

[
  {
    "SEQUENCE_ENTRY": "KKRQCKVLFEYIPQNEDELELKVGDIIDINEEVEEGWWSGTVNNKLGLFPSNFVKELEVTD",
    "abundance fitness": -0.064
  },
  {
    "SEQUENCE_ENTRY": "KKRQCKVLFEYIPQNEDELELKVGDIIDINEEVEEGMWSGTLNNKLGLFPSNFVKELEVTD",
    "abundance fitness": -0.267
  },
  {
    "SEQUENCE_ENTRY": "KKRQCKVLFEYIPQNEDELELKVGDIIDINEEVEEGWWSGTLNNKLGLFPSSFVKELEVTD",
    "abundance fitness": -0.02
  },
  {
    "SEQUENCE_ENTRY": "KKRQCKVLFEYIPQNEDELELKVGDIIDINEEVDEGWWSGTLNNKLGLFPSNFVKELEVTD",
    "abundance fitness": -0.3
  },
  {
    "SEQUENCE_ENTRY": "KKRQCKVLFEYIPQNEDELELKVGDIIDINEEVEEGWWSGTLNNKLGLFPSNFNKELEVTD",
    "abundance fitness": -0.84
  },
  {
    "SEQUENCE_ENTRY": "KKRQCKVLFEYIPQNEDELELKVGDIIFINEEVEEGWWSGTLNNKLGLFPSNFVKELEVTD",
    "abundance fitness": -0.335
  },
  {
    "SEQUENCE_ENTRY": "KKRQCKVLFEYIPQNEDELELKVGDIIDINEEVEEGWWSGTLNNKEGLFPSNFVKELEVTD",
    "abundance fitness": 0.138
  },
  {
    "SEQUENCE_ENTRY": "KKRQCKVLFEYIPQNEDELELKVGDIIDINEEVERGWWSGTLNNKLGLFPSNFVKELEVTD",
    "abundance fitness": -0.15
  },
  {
    "SEQUENCE_ENTRY": "KKRQCKVLFEYIPQNEDELELKVGDIIDINEEVEEGWWSGTLNNKLGLFPRNFVKELEVTD",
    "abundance fitness": -0.361
  },
  {
    "SEQUENCE_ENTRY": "KKRQCKVLFEYIPQNEDELELKVGDIIDINEEYEEGWWSGTLNNKLGLFPSNFVKELEVTD",
    "abundance fitness": -0.349
  },
  {
    "SEQUENCE_ENTRY": "KKRQCKVLFEYIPQNEDELELKVGDIIDINEEVEEGFWSGTLNNKLGLFPSNFVKELEVTD",
    "abundance fitness": -0.201
  },
  {
    "SEQUENCE_ENTRY": "KKRQCKVLFEYIPQNEDELELKVGDIIDINEEVEEGWWSGTLNNKLGLFPSNFVKELIVTD",
    "abundance fitness": -0.23
  },
  {
    "SEQUENCE_ENTRY": "KKRQCKVLFEYIPQNEDELELKVGDIIDINEEVEEGWWSGTLNNKLGLFGSNFVKELEVTD",
    "abundance fitness": -0.697
  },
  {
    "SEQUENCE_ENTRY": "KKRQCKVLFEYIPQNEDELELKVGDIIDINEEVEEGWWSGTLNNKLGLFPSNFVKELEVSD",
    "abundance fitness": -0.039
  },
  {
    "SEQUENCE_ENTRY": "KKRQCKVLFEYIPQNEDELELKVGDIIDINEEVELGWWSGTLNNKLGLFPSNFVKELEVTD",
    "abundance fitness": -0.452
  },
  {
    "SEQUENCE_ENTRY": "KKRQCKVLFEYIPQNEDELELKVGDIIAINEEVEEGWWSGTLNNKLGLFPSNFVKELEVTD",
    "abundance fitness": -0.536
  },
  {
    "SEQUENCE_ENTRY": "KKRQCKVLFEYIPQNEDELELKVGDIIDINEEVEEGWWSGTLNNKLGWFPSNFVKELEVTD",
    "abundance fitness": -0.201
  },
  {
    "SEQUENCE_ENTRY": "KKRQCKVLFEYIPQNEDELELKVGDIIDINEEVEVGWWSGTLNNKLGLFPSNFVKELEVTD",
    "abundance fitness": -0.15
  },
  {
    "SEQUENCE_ENTRY": "KKRQCKVLFEYIPQNEDELELKVGDIIDINEEVEEGWWSGTLNNKLGLFPSNFVKELEVED",
    "abundance fitness": 0.019
  },
  {
    "SEQUENCE_ENTRY": "KKRQCKVLFEYIPQNEDELELKVGDIIYINEEVEEGWWSGTLNNKLGLFPSNFVKELEVTD",
    "abundance fitness": -0.271
  },
  {
    "SEQUENCE_ENTRY": "KKRQCKVLFEYIPQNEDELELKVGDIIDINEEVEEGWWSGTLNNKLGLFPANFVKELEVTD",
    "abundance fitness": 0.09
  },
  {
    "SEQUENCE_ENTRY": "KKRQCKVLFEYIPQNEDELELKVGDIIDINEEVEEGWWSGTLNNKLGLFPSNFVKELEMTD",
    "abundance fitness": -0.219
  },
  {
    "SEQUENCE_ENTRY": "KKRQCKVLFEYIPQNEDELELKVGDIIDINEETEEGWWSGTLNNKLGLFPSNFVKELEVTD",
    "abundance fitness": -0.452
  },
  {
    "SEQUENCE_ENTRY": "KKRQCKVLFEYIPQNEDELELKVGDIIDINEEVEDGWWSGTLNNKLGLFPSNFVKELEVTD",
    "abundance fitness": -0.146
  },
  {
    "SEQUENCE_ENTRY": "KKRQCKVLFEYIPQNEDELELKVGDIIDINEEVEEGTWSGTLNNKLGLFPSNFVKELEVTD",
    "abundance fitness": -0.366
  },
  {
    "SEQUENCE_ENTRY": "KKRQCKVLFEYIPQNEDELELKVGDIIDFNEEVEEGWWSGTLNNKLGLFPSNFVKELEVTD",
    "abundance fitness": -0.274
  },
  {
    "SEQUENCE_ENTRY": "KKRQCKVLFEYIPQNEDELELKVGDIIDINEEVEEGWWSGTLNNKLGIFPSNFVKELEVTD",
    "abundance fitness": -0.022
  },
  {
    "SEQUENCE_ENTRY": "KKRQCKVLFEYIPQNEDELELKVGDIIDIREEVEEGWWSGTLNNKLGLFPSNFVKELEVTD",
    "abundance fitness": -0.171
  },
  {
    "SEQUENCE_ENTRY": "KKRQCKVLFEYIPQNEDELELKVGDIIDINWEVEEGWWSGTLNNKLGLFPSNFVKELEVTD",
    "abundance fitness": -0.755
  },
  {
    "SEQUENCE_ENTRY": "KKRQCKVLFEYIPQNEDELELKVGDIIDINEEVEEGWWSGTLYNKLGLFPSNFVKELEVTD",
    "abundance fitness": -0.553
  },
  {
    "SEQUENCE_ENTRY": "KKRQCKVLFEYIPQNEDELELKVGDIGDINEEVEEGWWSGTLNNKLGLFPSNFVKELEVTD",
    "abundance fitness": -0.939
  },
  {
    "SEQUENCE_ENTRY": "KKRQCKVLFEYIPQNEDELELKVGDIIDINEEVEEGWWSGTLNNKLGLFPSNFVKELEVDD",
    "abundance fitness": 0.183
  },
  {
    "SEQUENCE_ENTRY": "KKRQCKVLFEYIPQNEDELELKVGDIIDINEVVEEGWWSGTLNNKLGLFPSNFVKELEVTD",
    "abundance fitness": -0.155
  },
  {
    "SEQUENCE_ENTRY": "KKRQCKVLFEYIPQNEDELELKVGDIIDINEEVEEGWWSGTLNNKLGLFRSNFVKELEVTD",
    "abundance fitness": -0.064
  },
  {
    "SEQUENCE_ENTRY": "KKRQCKVLFEYIPQNEDELELKVGDIIDINEEVEEGWWSGTLNNKLGLFPSNFVKELEVTS",
    "abundance fitness": -0.692
  },
  {
    "SEQUENCE_ENTRY": "KKRQCKVLFEYIPQNEDELELKVGDIIDINEEVEEGWWSGTLNNKLGLFPSNFVNELEVTD",
    "abundance fitness": -0.193
  },
  {
    "SEQUENCE_ENTRY": "KKRQCKVLFEYIPQNEDELELKVGDIIDINEEVEEGWWSGTLNNKLGLFPSNFVKVLEVTD",
    "abundance fitness": -0.105
  },
  {
    "SEQUENCE_ENTRY": "KKRQCKVLFEYIPQNEDELELKVGDIIDINEEHEEGWWSGTLNNKLGLFPSNFVKELEVTD",
    "abundance fitness": -0.404
  },
  {
    "SEQUENCE_ENTRY": "KKRQCKVLFEYIPQNEDELELKVGDIIDINEEVEEGWWSGTLNNKLGLFPSNFVKELEVKD",
    "abundance fitness": -0.006
  },
  {
    "SEQUENCE_ENTRY": "KKRQCKVLFEYIPQNEDELELKVGDIISINEEVEEGWWSGTLNNKLGLFPSNFVKELEVTD",
    "abundance fitness": -0.368
  },
  {
    "SEQUENCE_ENTRY": "KKRQCKVLFEYIPQNEDELELKVGDIIDINEEVEEGWWSGTLNNKLGLFPSNCVKELEVTD",
    "abundance fitness": 0.067
  },
  {
    "SEQUENCE_ENTRY": "KKRQCKVLFEYIPQNEDELELKVGDIIDINEEVEEGWWSGTLNNKLGLFPSNFVKEEEVTD",
    "abundance fitness": -0.133
  },
  {
    "SEQUENCE_ENTRY": "KKRQCKVLFEYIPQNEDELELKVGDITDINEEVEEGWWSGTLNNKLGLFPSNFVKELEVTD",
    "abundance fitness": -0.902
  },
  {
    "SEQUENCE_ENTRY": "KKRQCKVLFEYIPQNEDELELKVGDIIDINEEVNEGWWSGTLNNKLGLFPSNFVKELEVTD",
    "abundance fitness": -0.337
  },
  {
    "SEQUENCE_ENTRY": "KKRQCKVLFEYIPQNEDELELKVGDIIDINEEVEEGWWSGTLNNKLFLFPSNFVKELEVTD",
    "abundance fitness": -0.784
  },
  {
    "SEQUENCE_ENTRY": "KKRQCKVLFEYIPQNEDELELKVGDIIDINEEVEEGWWSGTLPNKLGLFPSNFVKELEVTD",
    "abundance fitness": -0.791
  }
]
